Test: Solubility in acetonitrile
Assay type: physicochemical
Details: acetonitrile (electrolyte solution), organic solvent or mixture; read-out: solubility in acetonitrile
Protocol: In some embodiments, modifying the Z group in formula I above adjusts the solubility of the resulting compound. For example, in one embodiment, compound number 1 has a solubility of 0.1 M in acetonitrile (electrolyte solution), while compound number 2 has a solubility of 0.3 M in acetonitrile. Following the formation of reversibly reducible materials as discussed above, various compounds were tested for structure, solubility, and reduction potentials. […]
readoutLabel: solubility (mM)
Give bare numbers, in mM.

// solved cases for solubility follow
CC(C)CNC1=CC(=O)c2ccccc2C1=O: 100
CCN(CC)C1=CC(=O)c2ccccc2C1=O: 700

Here's the next entry for you.
Looking up `COCCNC1=CC(=O)c2ccccc2C1=O` , I found its solubility recorded as 300
